protocolNotes: Stat Signaling Pathway (AID 446);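 note: ME-180 cervical cancer cells given 40 pM IL-6 alongside compound; SIE-controlled beta-lactamase reporter measured as 460/530 nm FRET emission ratio; % is set by controls: 0 for no effect and ±100 for the full control effect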
measurementParameters: ME-180 (cervical carcinoma) SIE beta-lactamase reporter, IL-6 stimulated, 5 h; at 17.2 µM (top of the series) unless noted
Inconclusive results are not listed. Calls of active or inactive are those of the source. Calls come from the whole dose curve; as a rule, active = well fitted curve in either direction with a large enough effect (not every such curve was filed as active); inconclusive = small, poorly fitted or top-dose-only effect, or another doubt; inactive = flat fitted curve, though single readings scatter.
propertyName: activity, negative = inhibition

Query block: So what's the measured activity, negative = inhibition for this one? `CCCCCSc1nc(O)cc(=O)[nH]1`
Result block: -6.56% (inactive)

Query block: For `CCCCn1c(-c2ccc(Cl)cc2)nc2c(=O)n(C)c(=O)[nH]c21` then?
Result block: 27.6% (inactive)

Query block: Item: `COc1cccc(-c2nc(NCc3ccco3)c3ccccc3n2)c1O`
Result block: -8.59% (inactive)

Query block: Same read-out for Cc1cc2c(c(=O)n1Cc1ccccn1)C(c1ccc3c(c1)OCO3)C(C#N)=C(N)O2 (stereo unspecified) ?
Result block: -11.7% (inactive)

Query block: Record: COc1ccccc1C(=O)N1CCCC1(C#N)c1ccccc1 (stereo unspecified)
Result block: -2.09% (inactive)

Query block: Continue with `COC(=O)C1=C(C)NC(C)=C(C(=O)OCCN(C)Cc2ccccc2)[C@@H]1c1cccc([N+](=O)[O-])c1`
Result block: -11.8% [at 38 µM] (inactive)

Query block: Next record, please: `CCOC(=O)Cn1nc(C)c2ccccc2c1=O`
Result block: -2.19% (inactive)

Query block: # repeat for `COc1ccccc1-c1nnc2sc(C3CCCCC3)nn12`
Result block: 8.63% (inactive)

----------
tgt: Glucocorticoid receptor (Homo sapiens)
protocolNotes: GR-GFP Redistribution (AID 450); note: potency is the fitted concentration of half-maximal effect
measurementParameters: U2OS GR-GFP nuclear translocation, laser cytometry, 2 h; series mostly up to 20.6 µM
Activity calls are given as the source filed them.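 The calls were made as follows: active = compounds whose dose series gives a full or clear partial fitted curve of increased nuclear translocation; inconclusive = weak partial curve or effect only at the top dose; inactive = no dose-dependent translocation response.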
Outcome (select one): active, inactive

Example cases with answers are listed next.
Query block: How did this test come out for `CCc1cccc(CC)c1N(COC)C(=O)Cn1nnc2ccccc21` ?
Result block: inactive

Query block: Try this molecule too: `Clc1ccc(-c2cn3c(n2)CCC3)cc1`
Result block: inactive

Further cases:
Query block: Which outcome was entered for the molecule `COC(=O)CNc1nc(-c2cccnc2)nc2ccccc12` in this test?
Result block: inactive

Query block: Item: Cc1c(Cl)cccc1N1C(=O)C2ON(c3ccccc3)C(c3cccnc3)C2C1=O (stereo unspecified)
Result block: inactive

Query block: Follow-up item: O=C1C=C(O)CC(c2cccs2)C1 (stereo unspecified)
Result block: inactive

Query block: And what about the molecule `Cc1ccc(NC(=O)Cn2nc(C)c3ccccc3c2=O)cc1` ?
Result block: inactive

Query block: Now give it for `CC(=O)[C@@]1(O)CC[C@@H]2[C@@H]3CCC4=CC(=O)CC[C@@]4(C)[C@H]3CC[C@]21C` too.
Result block: active

Query block: For `Cc1cc(=O)oc(C)c1C(=O)NCCC1=CCCCC1` then?
Result block: inactive

Query block: Would you kindly repeat that for `CN1CCN(c2nc3c(c(=O)n(C)c(=O)n3C)n2Cc2cccc3ccccc23)CC1` ?
Result block: inactive

Query block: Next entry: COc1cccc(-c2nc(NCC3CCCO3)c3ccccc3n2)c1O (stereo unspecified)
Result block: inactive

Query block: Also `COc1cccc(OC)c1OCCN1CCN(C(=O)c2ccco2)CC1` , if possible.
Result block: inactive

----------
Tested on: P93_24
protocolNotes: qHTS profiling for inhibitors of Plasmodium falciparum proliferation (AID 504749); note: nearly all actives have a fitted effect of over 60% in size
measurementParameters: P. falciparum in erythrocytes, SYBR Green DNA, 72 h; series mostly up to 28.7 µM
Records with an inconclusive call do not appear. Active and inactive are the calls of the source. The call rests on the fitted dose curve; in most records, active means well fitted inhibition curve with a large enough effect; inconclusive means small, poorly fitted or top-dose-only effect; inactive means flat fitted curve, though single readings scatter.
Would you mind answering with one of these outcomes? active, inactive

Solved entries:
Query block: What classification did CC1CN(c2c(F)c(N)c3c(=O)c(C(=O)O)cn(C4CC4)c3c2F)CC(C)N1 (centres undefined) end up with in this test?
Result block: inactive

Query block: One more compound: Cc1c(C)c2c(c(C)c1O)CCC(C)(CCCC(C)CCCC(C)CCCC(C)C)O2 (centres undefined)
Result block: inactive

Query block: Next compound: `C/C=C1/NN(CCCN2CCN(c3cccc(Cl)c3)CC2)C(=O)N1CCOc1ccccc1`
Result block: inactive

Query block: Check CCN1CCN(C(=O)NC(C(=O)NC2C(=O)N3C(C(=O)O)=C(CSc4nnnn4C)CSC23)c2ccc(O)cc2)C(=O)C1=O (centres undefined) too.
Result block: inactive

Query block: Item: `O=C1C(I)=CC(=C(c2cc(I)c(O)c(I)c2)c2ccccc2C(=O)O)C=C1I`
Result block: inactive

Next:
Query block: Each compound tested received a call. Report the one for COc1ccc2cc1Oc1cc3c(cc1OC)CC[N+](C)(C)C3Cc1ccc(cc1)Oc1c(OC)c(OC)cc3c1C(C2)[N+](C)(C)CC3 (centres undefined) .
Result block: inactive

Query block: Next entry: `CC(C)(C)NC[C@H](O)CSc1nc(-c2ccc(C(N)=O)s2)cs1`
Result block: inactive

Query block: Ok, now COc1cc2c(cc1O)CCN[C@@]21CS[C@H]2c3c(OC(C)=O)c(C)c4c(c3C(COC1=O)N1C2C2c3c(cc(C)c(OC)c3O)CC([C@@H]1O)N2C)OCO4 (some centres undefined)
Result block: active

Query block: Queued: CO[C@H]1OC2O[C@@]3(C)CC[C@H]4[C@H](C)CC[C@@H]([C@H]1C)[C@@]24OO3 (some centres undefined)
Result block: active

----------
protocolNotes: qHTS profiling for inhibitors of Plasmodium falciparum proliferation (AID 504749); note: nearly all actives have a fitted effect of over 60% in size; note: potency is the fitted concentration of half-maximal effect
measurementParameters: P. falciparum in erythrocytes, SYBR Green DNA, 72 h; parasite line A
Records with an inconclusive call do not appear. The source made the active and inactive calls. The call rests on the fitted dose curve; in most records, active means well fitted inhibition curve with a large enough effect; inconclusive means small, poorly fitted or top-dose-only effect; inactive means flat fitted curve, though single readings scatter.
Form field: Potency (one value per entry).

Query block: Look at this compound and give its reported Potency. CC[C@@]1(O)CC2CN(CCc3c([nH]c4ccccc34)[C@](C(=O)OC)(c3cc4c(cc3OC)N(C)C3[C@@](O)(C(=O)OC)C(OC(C)=O)[C@]5(CC)C=CCN6CC[C@@]43C65)C2)C1 (stereo partly specified)
Result block: 2510 nM (active)

Query block: Check CCC(=O)O[C@]1(C(=O)CCl)[C@@H](C)CC2C3C[C@H](F)C4=CC(=O)C=CC4(C)[C@@]3(F)C(O)CC21C (stereo partly specified) too.
Result block: 12600 nM (active)

Query block: Then what about the compound C=C[C@@]1(C)C[C@H](OC(=O)CSC(C)(C)CNC(=O)[C@@H](N)C(C)C)[C@@]2(C)C(C)CC[C@@]3(CCC(=O)[C@@H]32)[C@H](C)[C@H]1O (stereo partly specified) ?
Result block: 3160 nM (active)

Query block: Another compound: `CN[C@H](C)CCC=C(C)C`
Result block: 355 nM (active)

Query block: Next: CC(=O)C1(O)Cc2c(O)c3c(c(O)c2C(OC2CC(N)C(O)C(C)O2)C1)C(=O)c1c(O)cccc1C3=O (stereo unspecified)
Result block: 5010 nM (active)

Next, consider the following compound.
Query block: Dear colleague, I am looking for the recorded Potency of the following compound: `CC[C@]1([C@H]2O[C@@H]([C@@H]3O[C@](O)(CO)[C@@H](C)C[C@H]3C)C[C@H]2C)CC[C@@H]([C@]2(C)CC[C@@]3(C[C@@H](O)[C@@H](C)[C@@H]([C@H](C)[C@H](OC)[C@H](C)C(=O)O)O3)O2)O1`
Result block: 25.1 nM (active)

----------
tgt: Cytochrome P450 2C19 (Homo sapiens) (UniProt P33261)
Sequence (P33261 whole entry, looked up): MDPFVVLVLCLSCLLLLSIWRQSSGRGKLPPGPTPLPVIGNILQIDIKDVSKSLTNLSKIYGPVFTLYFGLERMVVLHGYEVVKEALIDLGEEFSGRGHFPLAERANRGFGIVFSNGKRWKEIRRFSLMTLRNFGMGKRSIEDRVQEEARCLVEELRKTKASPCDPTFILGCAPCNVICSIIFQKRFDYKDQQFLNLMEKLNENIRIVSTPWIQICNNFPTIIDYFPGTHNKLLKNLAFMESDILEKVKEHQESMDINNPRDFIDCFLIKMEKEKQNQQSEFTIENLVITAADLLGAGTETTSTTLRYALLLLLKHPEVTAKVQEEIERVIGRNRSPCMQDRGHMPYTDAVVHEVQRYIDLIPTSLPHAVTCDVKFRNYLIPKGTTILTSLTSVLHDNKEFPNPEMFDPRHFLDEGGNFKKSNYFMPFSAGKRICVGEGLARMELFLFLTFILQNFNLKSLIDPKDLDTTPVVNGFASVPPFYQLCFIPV
protocolNotes: qHTS Assay for Inhibitors and Substrates of Cytochrome P450 2C19 (AID 899); note: nearly all actives have a fitted effect of over 60% in size
measurementParameters: recombinant CYP2C19, luciferin-H EGE luminescence; series mostly up to 57.1 µM
Inconclusive results are not listed. Activity calls are given as the source filed them. The call rests on the fitted dose curve; in most records, active means well fitted inhibition curve with a large enough effect; inconclusive means small, poorly fitted or top-dose-only effect; inactive means no such curve, though single readings can be large or run the other way.
Result category, one only: active, inactive

A selection of reference data follows.
Query block: Please state the recorded outcome for this compound: `C[C@H]1[C@H](C)CC[C@@]2(C(=O)O)CC[C@]3(C)C(=CC[C@H]4[C@@]5(C)C[C@@H](O)[C@H](O)[C@@](C)(CO)[C@@H]5CC[C@@]43C)[C@@H]12`
Result block: inactive

Query block: Can you check `O=c1cc(-c2ccccc2)oc2c1ccc1ccccc12` next?
Result block: active

Query block: Now the compound CCC/C=C(\CCC)C(NS(=O)(=O)c1ccccc1)c1ccc(C(F)(F)F)cc1 (configuration not stated)
Result block: active

Query block: // query: `CC(C)C[C@@H](CC(=O)N[C@@H](CCCN)CC(=O)N[C@@H]1CCNC[C@H]1C(=O)N[C@H](CC(=O)N[C@@H](CCC(=O)O)CC(=O)O)Cc1ccccc1)NC(=O)[C@@H]1CCCC[C@H]1N`
Result block: inactive

Query block: Try `CC(=O)N[C@H](c1ccccc1)[C@@]1(C)C[C@@H]1[C@@H](C)C(=O)Nc1ccc2ccccc2c1` next.
Result block: active

More entries:
Query block: // param item: `COc1ccc([C@@H]2CC(=O)c3c(O)cc(O[C@@H]4O[C@@H](CO[C@@H]5O[C@@H](C)[C@@H](O)[C@@H](O)[C@H]5O)[C@@H](O)[C@@H](O)[C@H]4O)cc3O2)cc1O` ; yields the recorded call
Result block: inactive

Query block: Please do the same for `Clc1ccc(CO[C@@H](Cn2ccnc2)c2ccc(Cl)cc2Cl)cc1` as well.
Result block: active
